biological target: Neuronal acetylcholine receptor; alpha4/beta2 (Homo sapiens, UniProt P17787+P43681); assay: Activation of human alpha4beta2 nAChR assessed as potentiation of submaximal response to nicotine induced current
Sequence (P17787 whole entry): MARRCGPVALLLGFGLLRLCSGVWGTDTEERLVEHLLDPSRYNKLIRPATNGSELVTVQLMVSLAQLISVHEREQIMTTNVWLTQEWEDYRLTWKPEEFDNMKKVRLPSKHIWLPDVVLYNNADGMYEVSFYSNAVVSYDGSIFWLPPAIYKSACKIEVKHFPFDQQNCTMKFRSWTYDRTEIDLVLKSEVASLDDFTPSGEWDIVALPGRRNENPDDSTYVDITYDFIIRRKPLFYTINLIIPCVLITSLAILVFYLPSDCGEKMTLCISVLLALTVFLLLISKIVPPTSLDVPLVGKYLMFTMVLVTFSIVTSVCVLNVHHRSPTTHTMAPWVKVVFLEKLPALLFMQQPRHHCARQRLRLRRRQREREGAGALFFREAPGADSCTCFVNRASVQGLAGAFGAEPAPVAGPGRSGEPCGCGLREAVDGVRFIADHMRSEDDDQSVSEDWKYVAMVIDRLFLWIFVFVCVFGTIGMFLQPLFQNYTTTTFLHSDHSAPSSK
Sequence (P43681 whole entry): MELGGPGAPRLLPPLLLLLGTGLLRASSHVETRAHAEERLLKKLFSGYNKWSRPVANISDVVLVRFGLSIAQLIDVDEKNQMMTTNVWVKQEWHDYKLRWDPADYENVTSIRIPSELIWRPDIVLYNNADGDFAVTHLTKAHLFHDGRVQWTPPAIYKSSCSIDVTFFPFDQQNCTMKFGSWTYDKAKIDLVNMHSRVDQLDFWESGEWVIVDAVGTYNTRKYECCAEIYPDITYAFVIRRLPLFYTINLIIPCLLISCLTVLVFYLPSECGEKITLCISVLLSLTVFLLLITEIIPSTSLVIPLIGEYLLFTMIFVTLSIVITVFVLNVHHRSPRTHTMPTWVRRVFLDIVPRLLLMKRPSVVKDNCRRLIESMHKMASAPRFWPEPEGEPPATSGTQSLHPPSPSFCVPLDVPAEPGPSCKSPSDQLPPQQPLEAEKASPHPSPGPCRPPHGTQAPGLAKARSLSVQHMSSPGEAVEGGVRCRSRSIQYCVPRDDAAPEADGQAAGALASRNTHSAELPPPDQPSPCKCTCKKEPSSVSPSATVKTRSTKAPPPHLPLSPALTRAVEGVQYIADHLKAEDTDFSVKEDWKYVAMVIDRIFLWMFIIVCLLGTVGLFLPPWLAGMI
measured-property: EC50 (nM)

[[record]]
smiles = "Clc1cnccc1-c1cc(-c2cnn(C3CCNCC3)c2)on1"
result_modifier = "="
numeric_value = 200

[[record]]
smiles = "CCn1c(-c2cc(-c3c(F)cccc3Cl)no2)cnc1C1CCNCC1"
result_modifier = "="
numeric_value = 3

[[record]]
smiles = "Cc1c(-c2cc(-c3ccccc3)no2)cnn1C1CCNCC1"
result_modifier = "="
numeric_value = 1200

[[record]]
smiles = "Cc1c(-c2cc(-c3ccccc3Cl)no2)cnn1C1CCNCC1"
result_modifier = "="
numeric_value = 18

[[record]]
smiles = "Clc1sccc1-c1cc(-c2cnn(C3CCNCC3)c2)on1"
result_modifier = "="
numeric_value = 130

[[record]]
smiles = "Fc1ccc(-c2cc(-c3cnn(C4CCNCC4)c3)on2)c(Cl)c1"
result_modifier = "="
numeric_value = 220

[[record]]
smiles = "Cn1c(-c2cc(-c3c(F)cccc3Cl)no2)cnc1C1(F)CCNCC1"
result_modifier = "="
numeric_value = 34

[[record]]
smiles = "Fc1cccc(-c2cc(-c3cnn(C4CCNCC4)c3)on2)c1Cl"
result_modifier = "="
numeric_value = 230

[[record]]
smiles = "CCn1c(-c2cc(-c3c(F)cccc3Cl)no2)cnc1C1(F)CCNCC1"
result_modifier = "="
numeric_value = 3

[[record]]
smiles = "CN(Cc1cc(-c2ccccc2Cl)no1)C(=O)C1CCNCC1"
result_modifier = "="
numeric_value = 350

[[record]]
smiles = "c1ccc(-c2cc(-c3cnn(C4CCNCC4)c3)on2)cc1"
result_modifier = ">"
numeric_value = 100000

[[record]]
smiles = "c1nn(C2CCNCC2)cc1-c1cc(C2CCCCC2)no1"
result_modifier = "="
numeric_value = 4600

[[record]]
smiles = "Cn1c(-c2cc(-c3c(F)cccc3Cl)no2)cnc1C1CCNCC1"
result_modifier = "="
numeric_value = 12

[[record]]
smiles = "Fc1ccc(Cl)c(-c2cc(-c3cnn(C4CCNCC4)c3)on2)c1"
result_modifier = "="
numeric_value = 270

[[record]]
smiles = "Cc1c(-c2cc(-c3c(F)cccc3Cl)no2)cnn1C1CCNCC1"
result_modifier = "="
numeric_value = 6

[[record]]
smiles = "Clc1ccccc1-c1cc(-c2cnc(C3CCNCC3)s2)on1"
result_modifier = "="
numeric_value = 33

[[record]]
smiles = "Fc1cccc(Cl)c1-c1cc(-c2cnn(C3CCNCC3)c2)on1"
result_modifier = "="
numeric_value = 48

[[record]]
smiles = "Clc1cccc(Cl)c1-c1cc(-c2cnn(C3CCNCC3)c2)on1"
result_modifier = "="
numeric_value = 410

[[record]]
smiles = "Clc1ccccc1-c1cc(-c2cnn(C3CCNCC3)c2)on1"
result_modifier = "="
numeric_value = 120

[[record]]
smiles = "Cc1cc(-c2cnn(C3CCNCC3)c2)on1"
result_modifier = "="
numeric_value = 1300


Each recorded value in this set is attributed to ChEMBL document CHEMBL1141716.
